experiment: Microsomal stability assay, human liver microsomes; type: in vitro ADME; settings: 10 μM
Property: Mics (hu) comp remaining 60 min; scope: individual molecules
Just the number please, in %, no unit attached.

Here is how some molecules turned out for Mics (hu) comp remaining 60 min.
O=P(O)(O)CP(=O)(O)OC[C@H]1O[C@@H](n2ccc3c(-c4cccc5ccncc45)ncnc32)[C@H](O)[C@@H]1O = 105
O=P(O)(O)CP(=O)(O)OC[C@H]1O[C@@H](n2ccc3c(-c4ccc5c(c4)CCCC5)nc(I)nc32)[C@H](O)[C@@H]1O [27H.23] = 104
Nc1nc(-c2cc3ccccc3o2)c2ccn([C@@H]3O[C@H](COP(=O)(O)CP(=O)(O)O)[C@@H](O)[C@H]3O)c2n1 [11C.8] = 100
O=P(O)(O)CP(=O)(O)OC[C@H]1O[C@@H](n2ccc3c(-c4ccc(F)c5ccccc45)nc(Cl)nc32)[C@H](O)[C@@H]1O = 95
O=P(O)(O)CP(=O)(O)OC[C@H]1O[C@@H](n2ccc3c(-c4ccnc5ccccc45)ncnc32)[C@@H](F)[C@@H]1O [34A.28] = 102

q: Consider the molecule O=P(O)(O)CP(=O)(O)OC[C@H]1O[C@@H](n2ccc3c(-c4cccc5c4CCCC5)ncnc32)[C@@H](F)[C@@H]1O [34A.12] and give its measured Mics (hu) comp remaining 60 min.
a: 96

q: Consider the molecule "O=P(O)(O)CP(=O)(O)OC[C@H]1O[C@@H](n2ccc3c(-c4cccc5ccoc45)ncnc32)[C@H](O)[C@@H]1O" and give its measured Mics (hu) comp remaining 60 min.
a: 118

q: Consider the molecule "O=P(O)(O)CP(=O)(O)OC[C@H]1O[C@@H](n2ccc3c(-c4cccc5c4OCCC5)ncnc32)[C@H](O)[C@@H]1O" and give its measured Mics (hu) comp remaining 60 min.
a: 96

* * *

target: CYP3A4 (Homo sapiens, UniProt P08684); construct: assay run by Bienta (Enamine Biology Services); assay: In vitro CYP450 inhibition assay (Vivid); format: biochemical; settings: probe fluorogenic Vivid CYP450 substrate (not named)
Sequence (P08684 2-503 limits assumed): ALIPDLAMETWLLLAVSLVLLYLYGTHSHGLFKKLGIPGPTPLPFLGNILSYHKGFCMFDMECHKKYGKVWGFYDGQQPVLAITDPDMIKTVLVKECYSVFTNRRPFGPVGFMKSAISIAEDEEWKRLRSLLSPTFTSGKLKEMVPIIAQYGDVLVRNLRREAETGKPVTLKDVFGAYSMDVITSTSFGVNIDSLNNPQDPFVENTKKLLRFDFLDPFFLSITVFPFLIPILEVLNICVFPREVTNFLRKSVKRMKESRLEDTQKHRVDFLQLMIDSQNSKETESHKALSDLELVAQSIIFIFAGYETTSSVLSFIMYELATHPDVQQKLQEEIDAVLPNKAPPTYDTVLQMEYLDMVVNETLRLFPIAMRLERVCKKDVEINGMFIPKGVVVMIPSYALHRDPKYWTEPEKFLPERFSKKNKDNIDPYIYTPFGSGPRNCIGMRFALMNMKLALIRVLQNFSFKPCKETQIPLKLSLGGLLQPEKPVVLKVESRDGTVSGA
readout name: inhibition at 25 min, 10 µM
// return the numeric value with its unit appended

Here is how some compounds turned out for inhibition at 25 min, 10 µM.
O=P(O)(O)CP(=O)(O)OC[C@H]1O[C@@H](n2ccc3c(-c4cccc5ccncc45)ncnc32)[C@H](O)[C@@H]1O = -3%
O=P(O)(O)CP(=O)(O)OC[C@H]1O[C@@H](n2ccc3c(-c4ccc5c(c4)CCCC5)nc(I)nc32)[C@H](O)[C@@H]1O [27H.23] = -23%

q: Consider the compound "O=P(O)(O)CP(=O)(O)OC[C@H]1O[C@@H](n2ccc3c(-c4ccc5c(c4)CCCC5)nc(Cl)nc32)[C@H](O)[C@@H]1O" and give its measured inhibition at 25 min, 10 µM.
a: -23%

* * *

assay: Microsomal stability assay, mouse liver microsomes; assay type: in vitro ADME; settings: pooled liver microsomes, pH 7.4, read-out: Mics (m) CLint
Property: microsomal CLint at 10 µM; scope: individual compounds

O=P(O)(O)CP(=O)(O)OC[C@H]1O[C@@H](n2ccc3c(-c4ccc5cc(OCc6ccccc6)ccc5c4)nc(Cl)nc32)[C@H](O)[C@@H]1O [7B.31] = < 2 µL/min/mg

q: Consider the compound O=P(O)(O)CP(=O)(O)OC[C@H]1O[C@@H](n2ccc3c(-c4cccc5ccccc45)nc(Cl)nc32)[C@H](O)[C@@H]1O [7B.6] and give its measured microsomal CLint at 10 µM.
a: 2 µL/min/mg

q: Consider the compound Nc1nc(-c2cccc3c2CCCC3)c2ccn([C@@H]3O[C@H](COP(=O)(O)CP(=O)(O)O)[C@@H](O)[C@H]3O)c2n1 [11C.12] and give its measured microsomal CLint at 10 µM.
a: < 1 µL/min/mg

These measurements were taken from paper PMC12797170.
